FYI, the data here is from patent US11299485B2.

system: TNF-α production; test: Human TNF-α production suppression test (LPS-stimulated peripheral blood mononuclear cells, ELISA); type: cell-based; settings: PBMC, compound 10 μg/mL, 24 hr, control well = 100, read-out: TNF-α production suppressive rate (%)
Please use class 1 whenever inhibition at 10 µg/mL is not below 80%, and class 0 whenever it is.

Worked examples follow.
Is the recorded value of inhibition at 10 µg/mL equal to or greater than 80% for this compound? Cl.O=C1CCC(n2cc(-c3cscc3OCc3ccc(CCN4CCOCC4)cc3)nn2)C(=O)N1 (centres unmarked) [compound 45, hydrochloride]
class 0

Is the recorded value of inhibition at 10 µg/mL equal to or greater than 80% for this compound? CCCCOc1cscc1-c1cn(C2CCC(=O)NC2=O)nn1 (centres unmarked) [compound 25]
class 0

Is the recorded value of inhibition at 10 µg/mL equal to or greater than 80% for this compound? O=C1CCC(n2cc(-c3cscc3OCc3ccccn3)nn2)C(=O)N1 (centres unmarked) [compound 34]
class 1

Is the recorded value of inhibition at 10 µg/mL equal to or greater than 80% for this compound? O=C1CCC(n2cc(-c3cscc3OCC3CCCC3)nn2)C(=O)N1 (centres unmarked) [compound 29]
class 0

Is the recorded value of inhibition at 10 µg/mL equal to or greater than 80% for this compound? CCOc1cscc1-c1cn(C2CCC(=O)NC2=O)nn1 (centres unmarked) [compound 17]
class 1

Is the recorded value of inhibition at 10 µg/mL equal to or greater than 80% for this compound? COc1c(-c2cn(C3CCC(=O)NC3=O)nn2)csc1C (centres unmarked) [compound 15]
class 1

Is the recorded value of inhibition at 10 µg/mL equal to or greater than 80% for this compound? O=C1CCC(n2cc(-c3cscc3OCc3cccnc3)nn2)C(=O)N1 (centres unmarked) [compound 35]
class 0

Is the recorded value of inhibition at 10 µg/mL equal to or greater than 80% for this compound? COc1c(-c2cn(C3CCC(=O)NC3=O)nn2)csc1Cl (centres unmarked) [compound 22]
class 0

Is the recorded value of inhibition at 10 µg/mL equal to or greater than 80% for this compound? Cl.O=C1CCC(n2cc(-c3cscc3OCc3ccc(CN4CCCCC4)cc3)nn2)C(=O)N1 (centres unmarked) [compound 42, hydrochloride]
class 1

Is the recorded value of inhibition at 10 µg/mL equal to or greater than 80% for this compound? C[C@@H]1CN(Cc2ccc(COc3cscc3-c3cn(C4CCC(=O)NC4=O)nn3)cc2)C[C@H](C)O1 (some centres unmarked) [compound 38]
class 1

Okay, next one:
Is the recorded value of inhibition at 10 µg/mL equal to or greater than 80% for this compound? O=C1CCC(n2cc(-c3ccsc3)nn2)C(=O)N1 (centres unmarked) [compound 2]
class 1
